# measured-target: H1047R PIK3CA enzyme (Homo sapiens, UniProt P42336, H1047R)
# Sequence (P42336 whole entry H1047R): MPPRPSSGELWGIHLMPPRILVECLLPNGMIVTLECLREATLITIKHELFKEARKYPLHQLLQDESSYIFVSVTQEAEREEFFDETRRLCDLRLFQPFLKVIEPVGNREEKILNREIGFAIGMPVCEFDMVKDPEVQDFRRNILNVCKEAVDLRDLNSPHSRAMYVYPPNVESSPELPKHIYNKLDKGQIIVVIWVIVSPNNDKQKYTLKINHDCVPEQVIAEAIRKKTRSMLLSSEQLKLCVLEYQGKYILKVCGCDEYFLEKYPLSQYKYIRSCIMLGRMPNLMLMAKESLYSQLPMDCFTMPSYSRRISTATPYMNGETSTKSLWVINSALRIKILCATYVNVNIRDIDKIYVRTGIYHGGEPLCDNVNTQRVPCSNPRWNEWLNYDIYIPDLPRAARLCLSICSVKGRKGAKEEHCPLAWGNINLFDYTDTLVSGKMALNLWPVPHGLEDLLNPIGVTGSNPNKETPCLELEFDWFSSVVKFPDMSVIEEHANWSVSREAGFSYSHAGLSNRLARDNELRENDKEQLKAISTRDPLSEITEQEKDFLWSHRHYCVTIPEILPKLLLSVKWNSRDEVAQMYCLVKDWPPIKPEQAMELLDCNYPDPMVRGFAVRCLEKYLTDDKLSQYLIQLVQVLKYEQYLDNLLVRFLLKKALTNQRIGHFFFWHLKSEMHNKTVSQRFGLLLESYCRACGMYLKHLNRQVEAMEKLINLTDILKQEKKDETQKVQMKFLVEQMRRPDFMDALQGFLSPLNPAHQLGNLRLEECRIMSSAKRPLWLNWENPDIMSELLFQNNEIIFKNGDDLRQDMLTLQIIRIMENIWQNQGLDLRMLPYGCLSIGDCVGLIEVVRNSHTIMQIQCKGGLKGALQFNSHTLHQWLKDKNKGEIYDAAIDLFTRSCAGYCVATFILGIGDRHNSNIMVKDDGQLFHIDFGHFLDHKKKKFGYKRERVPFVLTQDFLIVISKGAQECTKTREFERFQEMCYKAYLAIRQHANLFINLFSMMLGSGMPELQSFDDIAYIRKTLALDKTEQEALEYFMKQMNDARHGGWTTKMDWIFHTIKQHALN
# Sequence (P27986 whole entry partner): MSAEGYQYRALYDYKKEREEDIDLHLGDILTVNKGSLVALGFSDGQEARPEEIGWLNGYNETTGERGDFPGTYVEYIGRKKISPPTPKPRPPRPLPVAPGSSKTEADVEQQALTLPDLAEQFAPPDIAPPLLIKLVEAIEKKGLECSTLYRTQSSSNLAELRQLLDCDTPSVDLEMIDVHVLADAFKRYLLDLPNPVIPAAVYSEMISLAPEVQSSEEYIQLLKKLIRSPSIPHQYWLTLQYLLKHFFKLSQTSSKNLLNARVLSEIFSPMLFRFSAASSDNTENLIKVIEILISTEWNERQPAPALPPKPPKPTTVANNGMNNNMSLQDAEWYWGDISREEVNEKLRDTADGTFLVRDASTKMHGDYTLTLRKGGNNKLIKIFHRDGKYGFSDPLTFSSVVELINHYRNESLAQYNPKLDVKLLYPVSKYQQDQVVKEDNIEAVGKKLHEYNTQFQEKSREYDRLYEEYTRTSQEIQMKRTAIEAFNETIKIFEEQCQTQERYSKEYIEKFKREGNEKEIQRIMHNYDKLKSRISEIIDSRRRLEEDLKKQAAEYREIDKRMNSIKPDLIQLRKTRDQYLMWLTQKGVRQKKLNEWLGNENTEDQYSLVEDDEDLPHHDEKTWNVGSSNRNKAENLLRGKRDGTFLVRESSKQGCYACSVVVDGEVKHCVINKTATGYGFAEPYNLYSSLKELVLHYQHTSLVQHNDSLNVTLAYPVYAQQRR
# procedure-summary: ADP-Glo Biochemical PIK3CA Kinase Assay
The entries below are paired with their reported IC50.

query: Specify IC50 for O=C1NC[C@@H](c2cc(NC(=O)c3cc(F)cc(C(F)(F)F)c3)c3c(c2)C(=O)N[C@@H]3c2cc(F)ccc2Cl)O1 (single isomer, unassigned) , system H1047R PIK3CA enzyme (Homo sapiens, UniProt P42336, H1047R).
result: 500 to 1000 nM

query: Specify IC50 for O=C(Nc1cccc2c1C(C1CNC1)NC2=O)c1cc(F)cc(C(F)(F)F)c1 (stereo not drawn) , system H1047R PIK3CA enzyme (Homo sapiens, UniProt P42336, H1047R).
result: 10000 to 100000 nM

query: Specify IC50 for Nc1cc(NC(=O)N2C[C@H](O)c3cc(F)ccc32)c2c(c1)C(=O)N[C@H]2c1cc(F)ccc1Cl (single isomer, unassigned) , system H1047R PIK3CA enzyme (Homo sapiens, UniProt P42336, H1047R).
result: 10000 to 100000 nM

Continuing:
query: Specify IC50 for O=C(Nc1cc(Br)cc2c1C(c1cc(F)ccc1Cl)NC2=O)c1cc(F)cc(F)c1 (stereo not drawn) , system H1047R PIK3CA enzyme (Homo sapiens, UniProt P42336, H1047R).
result: 100 to 500 nM

query: Specify IC50 for O=C(Nc1cc(-c2ccc3ncnn3c2)cc2c1[C@@H](c1cc(F)ccc1Cl)NC2=O)c1cc(F)c(F)c(Cl)c1 (stereo in doubt) , system H1047R PIK3CA enzyme (Homo sapiens, UniProt P42336, H1047R).
result: 1000 to 10000 nM

query: Specify IC50 for O=C1NC(c2cc(F)ccc2Cl)c2c(NC(=O)C34CC5CC(CC(F)(C5)C3)C4)cccc21 (stereo not drawn) , system H1047R PIK3CA enzyme (Homo sapiens, UniProt P42336, H1047R).
result: 500 to 1000 nM

###

# procedure-summary: cells
# condition-summary: Homo sapiens, MCF-10A, read-out: MCF10A IC50
The entries below are paired with their reported IC50.

Known results for molecules:
query: Note down IC50 recorded for O=C(Nc1cc(-c2cc3ccccc3[nH]2)cc2c1C(c1cc(F)ccc1Cl)NC2=O)c1cc(F)cc(C(F)(F)F)c1 (stereo not shown)
result: < 1 µM

query: Note down IC50 recorded for O=C(Nc1cc(-c2cnn(C3CNC3)c2)cc2c1C(c1cc(F)ccc1Cl)NC2=O)c1cc(F)cc(C(F)(F)F)c1 (stereo not shown)
result: 10 to 36 µM

query: Note down IC50 recorded for O=C(Nc1cc(-c2cncnc2)cc2c1C(c1cc(F)ccc1Cl)NC2=O)c1cc(F)cc(C(F)(F)F)c1 (stereo not shown)
result: < 1 µM

query: Note down IC50 recorded for `O=C(Nc1cc(-c2ccc3ncnn3c2)cc2c1[C@@H](c1cc(F)c(F)cc1Cl)NC2=O)c1cc(F)cc(C(F)(F)F)c1`
result: < 1 µM

query: Note down IC50 recorded for N#Cc1c(-c2cc(NC(=O)c3cc(F)cc(C(F)(F)F)c3)c3c(c2)C(=O)N[C@H]3c2cc(F)ccc2Cl)ccc2ncnn12 (single isomer, unassigned)
result: < 1 µM

query: Note down IC50 recorded for O=C(Nc1cc(-c2cccc3cnccc23)cc2c1C(c1cc(F)ccc1Cl)NC2=O)c1cc(F)cc(C(F)(F)F)c1 (stereo not shown)
result: < 1 µM

Continuing:
query: Note down IC50 recorded for O=C1N[C@H](c2cc(F)ccc2Cl)c2c(NC(=O)N3C[C@H](C(F)F)c4ccccc43)cccc21 (single isomer, unassigned)
result: 1 to 5 µM

query: Note down IC50 recorded for CC(C)(O)c1ncc(-c2cc(NC(=O)c3cc(F)cc(C(F)(F)F)c3)c3c(c2)C(=O)NC3c2cc(F)ccc2Cl)cn1 (stereo not shown)
result: < 1 µM

###

The entries below are paired with their reported IC50.
# measured-target: H1047R PIK3CA enzyme (Homo sapiens, UniProt P42336, H1047R)
# procedure-summary: ADP-Glo Biochemical PIK3CA Kinase Assay

query: Note down IC50 recorded for O=C(Nc1cccc2c1C(c1cc(F)ccc1Br)NC2=O)c1cc(F)cc(C(F)(F)F)c1 (stereo not shown)
result: ≤ 0.1 µM

query: Note down IC50 recorded for O=C(Nc1cc(Cc2ccc3nncn3c2)cc2c1C(c1cc(F)ccc1Cl)NC2=O)c1cc(F)cc(C(F)(F)F)c1 (stereo not shown)
result: ≤ 0.1 µM

Continuing:
query: Note down IC50 recorded for Nc1cc(C(=O)Nc2cccc3c2C(c2cc(F)ccc2Cl)NC3=O)cc(C(F)(F)F)c1 (stereo not shown)
result: 1 to 10 µM

query: Note down IC50 recorded for CC(C)(O)COc1cc(NC(=O)c2cc(F)cc(Cl)c2)c2c(c1)C(=O)NC2c1cc(F)ccc1Cl (stereo not shown)
result: ≤ 0.1 µM

###

The entries below are paired with their reported IC50.
# measured-target: H1047R PIK3CA enzyme (Homo sapiens, UniProt P42336, H1047R)
# procedure-summary: ADP-Glo Biochemical PIK3CA Kinase Assay

query: Note down IC50 recorded for `Cc1ccccc1[C@@H]1NC(=O)c2nccc(NC(=O)N3CCc4c(F)cc(F)cc43)c21`
result: 500 to 1000 nM

query: Note down IC50 recorded for N#Cc1cc(NC(=O)N2C[C@@H](O)c3cc(F)ccc32)c2c(c1)C(=O)N[C@@H]2c1cc(F)ccc1Cl (single isomer, unassigned)
result: 500 to 1000 nM

query: Note down IC50 recorded for Nc1cc(-c2ccc3ncnn3c2)cc2c1C(c1cc(F)ccc1Cl)NC2=O (stereo not shown)
result: 10000 to 100000 nM

query: Note down IC50 recorded for O=C(Nc1cc(-c2n[nH]c3ncccc23)cc2c1C(c1cc(F)ccc1Cl)NC2=O)c1cc(F)cc(C(F)(F)F)c1 (stereo not shown)
result: ≤ 100 nM

query: Note down IC50 recorded for O=C(Nc1cc(Br)cc2c1C(c1cc(F)ccc1Cl)NC2=O)NC1(CC(F)(F)F)CCOCC1 (stereo not shown)
result: 10000 to 100000 nM

query: Note down IC50 recorded for CC(C)(O)c1cc(NC(=O)c2cc(F)cc3cc[nH]c23)c2c(c1)C(=O)NC2c1cc(F)ccc1Cl (stereo not shown)
result: ≤ 100 nM

query: Note down IC50 recorded for O=C1N[C@@H](c2cc(F)ccc2Cl)c2c(NC(=O)N3C[C@H](O)c4cc(F)ccc43)cc(-n3cccn3)cc21 (single isomer, unassigned)
result: ≤ 100 nM

query: Note down IC50 recorded for O=C(Nc1cc(Br)cc2c1C(c1cc(F)ccc1Cl)NC2=O)c1ccc(OC(F)(F)F)cc1 (stereo not shown)
result: 1000 to 10000 nM

query: Note down IC50 recorded for O=C1NC(c2cc(F)ccc2Cl)c2c1cc(-c1ccc3ncnn3c1)cc2N1CCn2ncnc2C1 (stereo not shown)
result: 10000 to 100000 nM

query: Note down IC50 recorded for O=C1NC(c2cc(F)ccc2Cl)c2c1cc(-c1ccc3ncnn3c1)cc2N1CCOCC1 (stereo not shown)
result: 10000 to 100000 nM

query: Note down IC50 recorded for O=C(Nc1cc(-c2cccc3nccn23)cc2c1C(c1cc(F)ccc1Cl)NC2=O)c1cc(F)cc(C(F)(F)F)c1 (stereo not shown)
result: ≤ 100 nM

query: Note down IC50 recorded for COC(C)(C)Cc1cc(NC(=O)c2cc(F)cc(C(F)(F)F)c2)c2c(c1)C(=O)NC2c1cc(F)ccc1Cl (stereo not shown)
result: ≤ 100 nM

query: Note down IC50 recorded for COc1cc(C(=O)Nc2cccc3c2C(c2ccccc2C)NC3=O)cc(F)c1F (stereo not shown)
result: 500 to 1000 nM

query: Note down IC50 recorded for N#CCCc1cc(NC(=O)c2cc(F)cc(C(F)(F)F)c2)c2c(c1)C(=O)N[C@@H]2c1cc(F)ccc1Cl (stereo in doubt)
result: 10000 to 100000 nM

query: Note down IC50 recorded for Nc1cn2cc(-c3cc(NC(=O)c4cc(F)cc(C(F)(F)F)c4)c4c(c3)C(=O)NC4c3cc(F)ccc3Cl)ccc2n1 (stereo not shown)
result: ≤ 100 nM

query: Note down IC50 recorded for O=C(Nc1cccc2c1C(c1cc(F)c(F)cc1C(F)F)NC2=O)c1cc(F)cc(Cl)c1 (stereo not shown)
result: 100 to 500 nM

query: Note down IC50 recorded for `O=C1N[C@H](c2cc(F)ccc2Cl)c2c(NC(=O)[C@H]3CC[C@@H](C(F)(F)F)C3)cccc21`
result: 10000 to 100000 nM

query: Note down IC50 recorded for O=C(Nc1cc(-c2ccc(C(F)F)nc2)cc2c1C(c1cc(F)ccc1Cl)NC2=O)c1cc(F)cc(C(F)(F)F)c1 (stereo not shown)
result: 100 to 500 nM

query: Note down IC50 recorded for Cn1c(Cl)cc(C(=O)Nc2cc(Br)cc3c2C(c2cc(F)ccc2Cl)NC3=O)cc1=O (stereo not shown)
result: 10000 to 100000 nM

query: Note down IC50 recorded for `Cc1ccccc1[C@@H]1NC(=O)c2cc(C(=O)NCC(F)F)cc(NC(=O)c3nsc4ccccc34)c21`
result: ≤ 100 nM

query: Note down IC50 recorded for N#CCn1nccc1-c1cc(NC(=O)c2cc(F)cc(C(F)(F)F)c2)c2c(c1)C(=O)NC2c1cc(F)ccc1Cl (stereo not shown)
result: ≤ 100 nM

Measured values drawn from patent US12581252B2 for this set.
